B1: PhoQ; a variant is named by its letters at X, in order, P23837 (parent)
chain: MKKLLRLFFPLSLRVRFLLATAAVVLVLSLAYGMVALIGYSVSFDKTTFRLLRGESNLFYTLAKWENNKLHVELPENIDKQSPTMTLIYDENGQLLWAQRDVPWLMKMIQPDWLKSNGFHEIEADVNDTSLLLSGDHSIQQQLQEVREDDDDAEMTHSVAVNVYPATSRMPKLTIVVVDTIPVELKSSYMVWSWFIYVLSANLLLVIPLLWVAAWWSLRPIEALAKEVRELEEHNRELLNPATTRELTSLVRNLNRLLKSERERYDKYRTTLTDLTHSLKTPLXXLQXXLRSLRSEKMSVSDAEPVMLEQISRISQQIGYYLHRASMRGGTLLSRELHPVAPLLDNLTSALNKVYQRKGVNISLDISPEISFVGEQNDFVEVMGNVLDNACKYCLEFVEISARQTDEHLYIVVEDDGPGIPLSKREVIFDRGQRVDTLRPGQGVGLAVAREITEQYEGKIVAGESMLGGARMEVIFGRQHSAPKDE

# Variants of: B1
# Assay summary: enrichment ratio after two sorts for PhoP signalling (ratio (wild type AVST 3.29)); higher = more functional
# Condition: with PhoP (E. coli)
The full ranking holds about 140,000 sequences; the median of “enrichment ratio after two sorts for PhoP signalling” is about 0, and the highest 2% start at about 11. For the sample, the highest values were picked, then their nearest neighbours and some sequences at random.
Reported enrichment ratio values are given for each entry in this list.

Variant notation: MYAM
enrichment ratio: ≤ 0.25
--
Variant notation: LPYL
enrichment ratio: ≤ 0.25
--
Variant notation: TTGA
enrichment ratio: 12.6
--
Variant notation: PMFK
enrichment ratio: ≤ 0.25
--
Variant notation: TEAN
enrichment ratio: 29.6
--
Variant notation: MTVM
enrichment ratio: 12.8
--
Variant notation: ITVM
enrichment ratio: ≤ 0.25
--
Variant notation: GGMA
enrichment ratio: ≤ 0.25
--
Variant notation: WHVG
enrichment ratio: ≤ 0.25
--
Variant notation: KMYN
enrichment ratio: ≤ 0.25
--
Variant notation: AWFR
enrichment ratio: ≤ 0.25
--
Variant notation: MEAN
enrichment ratio: 32.4
--
Variant notation: LETR
enrichment ratio: ≤ 0.25
--
Variant notation: TGSW
enrichment ratio: ≤ 0.25
--
Variant notation: EVAW
enrichment ratio: ≤ 0.25
--
Variant notation: GNVM
enrichment ratio: 22.8
--
Variant notation: KSTF
enrichment ratio: ≤ 0.25
--
Variant notation: ITGA
enrichment ratio: ≤ 0.25
--
Variant notation: MKCV
enrichment ratio: ≤ 0.25
--
Variant notation: MYCI
enrichment ratio: ≤ 0.25
--
Variant notation: NHMA
enrichment ratio: 16.2
--
Variant notation: NEVM
enrichment ratio: 7.03
--
Variant notation: RGMA
enrichment ratio: ≤ 0.25
--
Variant notation: EMPS
enrichment ratio: ≤ 0.25
--
Variant notation: TGMA
enrichment ratio: 26.1
--
Variant notation: YTMA
enrichment ratio: ≤ 0.25
--
Variant notation: MDIN
enrichment ratio: ≤ 0.25
--
Variant notation: STVM
enrichment ratio: 16.3
--
Variant notation: MDAT
enrichment ratio: 25.1
--
Variant notation: NRRY
enrichment ratio: ≤ 0.25
--
Variant notation: MTPM
enrichment ratio: ≤ 0.25
--
Variant notation: FLMS
enrichment ratio: ≤ 0.25
--
Variant notation: PGRT
enrichment ratio: ≤ 0.25
--
Variant notation: MFAN
enrichment ratio: ≤ 0.25
--
Variant notation: KTHI
enrichment ratio: ≤ 0.25
--
Variant notation: KYVM
enrichment ratio: ≤ 0.25
--
Variant notation: NEMA
enrichment ratio: ≤ 0.25
--
Variant notation: DYRT
enrichment ratio: ≤ 0.25
--
Variant notation: IGLE
enrichment ratio: ≤ 0.25
--
Variant notation: MEVM
enrichment ratio: 12.9
--
Variant notation: YTGA
enrichment ratio: ≤ 0.25
--
Variant notation: LLLK
enrichment ratio: ≤ 0.25
--
Variant notation: MEIN
enrichment ratio: 11.2
--
Variant notation: QEAN
enrichment ratio: 2.7
--
Variant notation: QIIS
enrichment ratio: ≤ 0.25
--
Variant notation: AITF
enrichment ratio: 15
